# System name: T1, human Claudin 3 (human, UniProt O15551 1-220)
# T1 construct: forced expression in DG44 or Ba/F3 cells, or endogenous on MCF7 cells; four-transmembrane tight junction protein; also called hCLDN3; hCLN3
# T1 sequence: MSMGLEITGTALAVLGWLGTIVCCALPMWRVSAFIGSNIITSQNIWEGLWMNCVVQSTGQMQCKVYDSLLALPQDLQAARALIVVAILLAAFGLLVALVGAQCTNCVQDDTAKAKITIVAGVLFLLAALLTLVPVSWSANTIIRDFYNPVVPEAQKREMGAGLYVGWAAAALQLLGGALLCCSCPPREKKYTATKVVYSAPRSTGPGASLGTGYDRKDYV
# Test summary: flow cytometry, MCF7 cells (endogenous Claudin 3), 5 ug/mL antibody
Observation type: X geometric mean
Number only, no unit.

Answered examples (3):
Binder	Observation type	Value measured
CDN35 (antibody, V domains shown, mouse monoclonal, IgG2a/IgK) VH: EVQLQQSGPELVKPGASVKMSCKASGYTFTDYYMNWVKQSHGKSLEWIGRVNPSNGGTSYNQKFKGKATLTVDKSLSTAYMQLNSLTSEDSAVYYCARGLAYYSNSFTYWGQGTLVTVSA VL: KIVLTQSPASLAVSLRQRATISCRASESVDSYGNSFMHWYQQKPGQPPKLLIYRASNLESGVPARFSGSGSRTDFTLTIDPVEADDAATYYCQQNNEDPWTFGGGTKLEIKR	X geometric mean	380
CDN04 (antibody, mouse IgG1, kappa, V domains shown, mouse monoclonal, IgG1/IgK; also called CDN4) VH: EVQLQQSGPELVKPGASMKISCKASGYSFTGYTMNWMKQGHGKNLEWIGLINPYNGGTSYNQKFKDKATLTLDKSSSSAYMELLSLTSEDSAVYYCARGSYGSSYFDYWGQGTTLTVSS VL: DIVMSQSPSSLAVSVGEKVTMSCKSSQSLLYGSNQKNYLAWYQQKPGQSPKLLIYWASTRESGVPDRFTGSGSGTDFTLTISSVKAEDLAVYYCQQYYNFPYTFGGGTKLEIKR	X geometric mean	130
CDN28 (antibody, mouse IgG1, kappa, V domains shown, mouse monoclonal, IgG1/IgK) VH: EVQLQQSGPELVKPGASVKISCKASGYSFTGYFMNWVKQSHGKSLEWLGRINPYNGDTFYNQKFKGKATLTVDKSSNTAHMELRSLTSEDSAVYYCARGDGYYVTSLAYWGQGTLVTVSA VL: NIVMTQSPKSMSMSVGERVTLSCKASENVVSYVSWFQQKPEQSPKLLIYGASNRYTGVPDRFTGSGSATDFTLTISSVQAEDLADYYCGQSYSYPLTFGAGTKLELKR	X geometric mean	186

Short answer for CDN16 (antibody, mouse IgG2b, kappa, V domains shown, mouse monoclonal, IgG2b/IgK) VH: EVQLQQSGPELVKPGASVKMSCKASGYTFTDYYMNWVKQSHGKSLEWIGRVNPSNGGTSYNQKFKGKATLTVDKSLSTAYMQLNSLTSEDSAVYYCARGLAYYSNSFVYWGQGTLVTVSA VL: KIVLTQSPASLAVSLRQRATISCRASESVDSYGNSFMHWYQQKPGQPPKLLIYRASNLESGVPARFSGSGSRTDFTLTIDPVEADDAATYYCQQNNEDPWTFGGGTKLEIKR : X geometric mean was 361

Entry CDN27 (antibody, V domains shown, mouse monoclonal, IgG2a/IgK) VH: EVQLQQSGPELVKPGASVKISCKASGYSFTGYFMNWVKQSHGKSLEWIGRINPYNGDTFYNQKFKGKATLTVDKSSSTAHMELRSLTSEDSAVYYCARSGDWYFDVWGAGTTVTVSS VL: DIVLTQSPASLAVSLGQRATISCRASKSVSTSSYSYMHWYQQKPGQPPKLLIKFASYLESGVPARFSGSGSGTDFTLNIHPVEEEDAATYYCQHSREFPRTFGGGTKLEIKR ; X geometric mean = 310

Summary for this binder, CDN38 (antibody, V domains shown) VH: EVQLQQSGPELVKPGASVKMSCKASGYSFTGYFMNWVKQSHGKSLEWIGRINPYNGDTFYNQKFKGKATLTVDKSSSTAHMELRSLTSEDSALYYCARSGNYVMDYWGQGTSVTVSS VL: DIVLTQSPASLAVSLGQSVTISCRASESVEYYGTSLMQWYQQKPGQPPKLLIYGASNVESGVPARFSGSGSGTDFSLNIHPVEEDDIAMYFCQQSRKVPWTFGGGTKLEIKR : X geometric mean is 61
